Tested on: G. pulex
Run parameters: Gammarus pulex, in vivo
Flag rule - k2, Sequential BCF less than 0.2 day^− 1 flags Condition met; the remaining entries get Condition not met.

Task: Determine if `CNC(=O)Oc1cccc2c1OC(C)(C)C2` shows k2, Sequential BCF strictly lower than 0.2 day^− 1.
Result: Condition met

Task: Determine if `Oc1ccc(Cl)cc1Cl` shows k2, Sequential BCF strictly lower than 0.2 day^− 1.
Result: Condition met

Task: Determine if O=[N+]([O-])c1ccc(CCl)cc1 [4-Nitrobenzyl chloride] shows k2, Sequential BCF strictly lower than 0.2 day^− 1.
Result: Condition not met

Task: Determine if `O=[N+]([O-])NC1=NCCN1Cc1ccc(Cl)nc1` shows k2, Sequential BCF strictly lower than 0.2 day^− 1.
Result: Condition met

Task: Determine if `Nc1ccc(Cl)cc1Cl` shows k2, Sequential BCF strictly lower than 0.2 day^− 1.
Result: Condition not met

Task: Determine if `CNC(=O)O/N=C/C(C)(C)SC` shows k2, Sequential BCF strictly lower than 0.2 day^− 1.
Result: Condition not met

Task: Determine if `Clc1c(Cl)c(Cl)c(Cl)c(Cl)c1Cl` shows k2, Sequential BCF strictly lower than 0.2 day^− 1.
Result: Condition met

Task: Determine if `Clc1cccc(Cl)c1Cl` shows k2, Sequential BCF strictly lower than 0.2 day^− 1.
Result: Condition not met

Task: Determine if CCOC(=O)CC(SP(=S)(OC)OC)C(=O)OCC (centres unmarked) shows k2, Sequential BCF strictly lower than 0.2 day^− 1.
Result: Condition not met

Task: Determine if `Oc1cc(Cl)c(Cl)cc1Cl` shows k2, Sequential BCF strictly lower than 0.2 day^− 1.
Result: Condition met

Task: Determine if `CCOP(=S)(OCC)Oc1cc(C)nc(C(C)C)n1` shows k2, Sequential BCF strictly lower than 0.2 day^− 1.
Result: Condition not met

* * *

Tested on: G. pulex
Run parameters: Gammarus pulex, in vivo
Quantity measured: k1, Sequential BCF

Task: Annotate the compound CNC(=O)O/N=C/C(C)(C)SC [Aldicarb] with its measured k1, Sequential BCF.
Result: 3 L kg^− 1 day^− 1

Task: Annotate the compound Oc1cc(Cl)c(Cl)cc1Cl [2,4,5-Trichlorophenol] with its measured k1, Sequential BCF.
Result: 1091 L kg^− 1 day^− 1

Task: Annotate the compound CCOP(=S)(OCC)Oc1cc(C)nc(C(C)C)n1 [Diazinon] with its measured k1, Sequential BCF.
Result: 161 L kg^− 1 day^− 1

Task: Annotate the compound O=[N+]([O-])NC1=NCCN1Cc1ccc(Cl)nc1 [Imidacloprid] with its measured k1, Sequential BCF.
Result: 2 L kg^− 1 day^− 1

Task: Annotate the compound O=[N+]([O-])c1ccc(CCl)cc1 [4-Nitrobenzyl chloride] with its measured k1, Sequential BCF.
Result: 259 L kg^− 1 day^− 1

Task: Annotate the compound Nc1ccc(Cl)cc1Cl [2,4-Dichloroaniline] with its measured k1, Sequential BCF.
Result: 70 L kg^− 1 day^− 1

Task: Annotate the compound Clc1cccc(Cl)c1Cl [1,2,3-Trichlorobenzene] with its measured k1, Sequential BCF.
Result: 167 L kg^− 1 day^− 1

Task: Annotate the compound Oc1ccc(Cl)cc1Cl [2,4-Dichlorophenol] with its measured k1, Sequential BCF.
Result: 750 L kg^− 1 day^− 1

Task: Annotate the compound CCOC(=O)CC(SP(=S)(OC)OC)C(=O)OCC (centres unmarked) [Malathion] with its measured k1, Sequential BCF.
Result: 80 L kg^− 1 day^− 1

Task: Annotate the compound CNC(=O)Oc1cccc2c1OC(C)(C)C2 [Carbofuran] with its measured k1, Sequential BCF.
Result: 10 L kg^− 1 day^− 1

Task: Annotate the compound Clc1c(Cl)c(Cl)c(Cl)c(Cl)c1Cl [Hexachlorobenzene] with its measured k1, Sequential BCF.
Result: 631 L kg^− 1 day^− 1

* * *

System: Gammarus pulex
Assay overview: Toxicokinetic exposure (48 h uptake, 48 h depuration) of radio-labelled pharmaceuticals, first-order one-compartment model (OECD 305)
Run parameters: sequential using linear regression
Kindly supply the reported k1, Sequential BCF b values for the records listed here.
Note: state the figure and append the unit.

Task: Annotate the compound CN(C)CCCN1c2ccccc2CCc2ccccc21 [Imipramine, imipramine] with its measured k1, Sequential BCF b.
Result: 1.360 L kg^− 1 day^− 1

Task: Annotate the compound COc1ccc(CC(C)NCC(O)c2ccc(O)c(NC=O)c2)cc1 (stereo not shown) [Formoterol, formoterol] with its measured k1, Sequential BCF b.
Result: 0.357 L kg^− 1 day^− 1

Task: Annotate the compound CC(C)(C)NCC(O)c1cc(O)cc(O)c1 (stereo not shown) [Terbutaline, terbutaline] with its measured k1, Sequential BCF b.
Result: 0.117 L kg^− 1 day^− 1

Task: Annotate the compound O=C(O)Cc1ccccc1Nc1c(Cl)cccc1Cl [Diclofenac, diclofenac] with its measured k1, Sequential BCF b.
Result: 0.269 L kg^− 1 day^− 1

* * *

Test system: G. pulex exoskeleton
Run parameters: both, Gammarus pulex, in vivo, pH 8.2
Flag rule - Mean Compound Mass per Animal less than 300 pg flags Condition met; the remaining entries get Condition not met.

Task: Determine if COCCc1ccc(OCC(O)CNC(C)C)cc1 (centres unmarked) shows Mean Compound Mass per Animal strictly lower than 300 pg.
Result: Condition met

Task: Determine if `CN(C)CCCN1c2ccccc2CCc2ccccc21` shows Mean Compound Mass per Animal strictly lower than 300 pg.
Result: Condition not met

Task: Determine if `CNC(=C[N+](=O)[O-])NCCSCc1ccc(CN(C)C)o1` shows Mean Compound Mass per Animal strictly lower than 300 pg.
Result: Condition met

Task: Determine if CC(C)NCC(O)COc1cccc2ccccc12 (centres unmarked) shows Mean Compound Mass per Animal strictly lower than 300 pg.
Result: Condition not met

Task: Determine if `O=C(O)Cc1ccccc1Nc1c(Cl)cccc1Cl` shows Mean Compound Mass per Animal strictly lower than 300 pg.
Result: Condition not met

* * *

Test system: Gammarus pulex
Assay overview: Toxicokinetic exposure (48 h uptake, 48 h depuration) of radio-labelled pharmaceuticals, first-order one-compartment model (OECD 305)
Run parameters: kinetic BCF, sequential using linear regression
Quantity measured: BCF, Sequential BCF b
Note: state the figure and append the unit.

Task: Annotate the compound CC(C)(C)NCC(O)c1cc(O)cc(O)c1 (stereo not shown) with its measured BCF, Sequential BCF b.
Result: 19 L kg^− 1

Task: Annotate the compound `CN(C)CCCN1c2ccccc2CCc2ccccc21` with its measured BCF, Sequential BCF b.
Result: 4533 L kg^− 1

Task: Annotate the compound COc1ccc(CC(C)NCC(O)c2ccc(O)c(NC=O)c2)cc1 (stereo not shown) with its measured BCF, Sequential BCF b.
Result: 33 L kg^− 1

Task: Annotate the compound `O=C(O)Cc1ccccc1Nc1c(Cl)cccc1Cl` with its measured BCF, Sequential BCF b.
Result: 21 L kg^− 1

* * *

Test system: G. pulex
Run parameters: Gammarus pulex, in vivo
Quantity measured: BCF, Simultaneous BCF
Note: state the figure and append the unit.

Task: Annotate the compound `Oc1cc(Cl)c(Cl)cc1Cl` with its measured BCF, Simultaneous BCF.
Result: 3729 L kg^− 1

Task: Annotate the compound `Nc1ccc(Cl)cc1Cl` with its measured BCF, Simultaneous BCF.
Result: 50 L kg^− 1

Task: Annotate the compound `CNC(=O)Oc1cccc2c1OC(C)(C)C2` with its measured BCF, Simultaneous BCF.
Result: 68 L kg^− 1

Task: Annotate the compound `O=[N+]([O-])NC1=NCCN1Cc1ccc(Cl)nc1` with its measured BCF, Simultaneous BCF.
Result: 7 L kg^− 1

Task: Annotate the compound `Clc1cccc(Cl)c1Cl` with its measured BCF, Simultaneous BCF.
Result: 107 L kg^− 1

Task: Annotate the compound CCOC(=O)CC(SP(=S)(OC)OC)C(=O)OCC (centres unmarked) with its measured BCF, Simultaneous BCF.
Result: 120 L kg^− 1

Task: Annotate the compound `CNC(=O)O/N=C/C(C)(C)SC` with its measured BCF, Simultaneous BCF.
Result: 2 L kg^− 1

Task: Annotate the compound `Clc1c(Cl)c(Cl)c(Cl)c(Cl)c1Cl` with its measured BCF, Simultaneous BCF.
Result: 2505 L kg^− 1

Task: Annotate the compound `CCOP(=S)(OCC)Oc1cc(C)nc(C(C)C)n1` with its measured BCF, Simultaneous BCF.
Result: 77 L kg^− 1

Task: Annotate the compound `Oc1ccc(Cl)cc1Cl` with its measured BCF, Simultaneous BCF.
Result: 9050 L kg^− 1

Task: Annotate the compound O=[N+]([O-])c1ccc(CCl)cc1 [4-Nitrobenzyl chloride] with its measured BCF, Simultaneous BCF.
Result: 147 L kg^− 1

* * *

Kindly supply the reported BCF, Simultaneous BCF values for the records listed here.
Test system: Gammarus pulex
Assay overview: Toxicokinetic exposure (48 h uptake, 48 h depuration) of radio-labelled pharmaceuticals, first-order one-compartment model (OECD 305)
Run parameters: kinetic BCF (k1/k2), simultaneous method

Task: Annotate the compound COc1ccc(CC(C)NCC(O)c2ccc(O)c(NC=O)c2)cc1 (stereo not shown) with its measured BCF, Simultaneous BCF.
Result: 14 L kg^− 1

Task: Annotate the compound `CN(C)CCCN1c2ccccc2CCc2ccccc21` with its measured BCF, Simultaneous BCF.
Result: 212 L kg^− 1

Task: Annotate the compound CC(C)(C)NCC(O)c1cc(O)cc(O)c1 (stereo not shown) with its measured BCF, Simultaneous BCF.
Result: 12 L kg^− 1

Task: Annotate the compound `O=C(O)Cc1ccccc1Nc1c(Cl)cccc1Cl` with its measured BCF, Simultaneous BCF.
Result: 14 L kg^− 1
